- system-tested: norepinephrine (NE) transporter (Homo sapiens)
- Construct: expressed in transfected cells; host or cells: CHO cells
- Sequence (P23975 whole entry): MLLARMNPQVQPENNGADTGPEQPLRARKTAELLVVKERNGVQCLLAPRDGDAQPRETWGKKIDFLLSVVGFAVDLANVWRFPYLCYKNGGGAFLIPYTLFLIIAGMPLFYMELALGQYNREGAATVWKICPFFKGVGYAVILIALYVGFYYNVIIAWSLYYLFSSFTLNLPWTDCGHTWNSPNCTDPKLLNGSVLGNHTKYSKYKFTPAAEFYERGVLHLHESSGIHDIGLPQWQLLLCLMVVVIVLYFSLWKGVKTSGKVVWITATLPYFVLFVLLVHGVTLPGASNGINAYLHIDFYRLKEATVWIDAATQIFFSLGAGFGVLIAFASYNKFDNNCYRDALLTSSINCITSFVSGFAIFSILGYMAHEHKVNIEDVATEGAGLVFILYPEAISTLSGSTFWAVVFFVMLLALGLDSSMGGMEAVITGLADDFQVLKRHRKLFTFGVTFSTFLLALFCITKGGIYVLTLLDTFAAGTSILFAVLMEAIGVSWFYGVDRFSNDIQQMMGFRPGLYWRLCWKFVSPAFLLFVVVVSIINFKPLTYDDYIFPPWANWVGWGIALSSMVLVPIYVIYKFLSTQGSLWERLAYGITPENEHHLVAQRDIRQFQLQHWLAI
- experiment-summary: Norepinephrine transporter binding radioligand inhibition ([3H]-nisoxetine)
- measurement-parameters: concentration 10 μM
Structures can show the parent of a compound that is named as a salt.
measured-property: inhibition at 10 µM

Consider the reported inhibition at 10 µM for these compounds:
O=C1CCCN1CCOc1ccc(CCO)cc1    65 to 90%
Cl.OCCc1ccc(OCC2CNCCO2)cc1 (centres unmarked) [Example 18, hydrochloride]    65 to 90%
CNCCC(Oc1ccc(CO)cc1)c1ccccc1 (centres unmarked) [Example 17, hydrochloride]    94%
CNCCC(Oc1ccc(/C=C/CCCCO)cc1)c1ccccc1 (centres unmarked)    65 to 90%

Value sought for every listed compound: inhibition at 10 µM.
1. CNCCC(Oc1cc(CO)cc(CO)c1)c1ccccc1 (centres unmarked) [Example 19, hydrochloride]
2. CN(C)CCC(Oc1ccc(CCO)cc1)c1ccccc1 (centres unmarked)
3. CNCCC(Oc1cc(CCCO)cc(CCCO)c1)c1ccccc1 (centres unmarked)
4. CNCCC(Oc1ccc(CCCCO)cc1)c1ccccc1 (centres unmarked) [Example 14, hydrochloride]

Ans:
1. 75%
2. 65 to 90%
3. 65 to 90%
4. 85%

Cited source: patent US9980928B2
